settings: buffer; pH 7.4; 200.0 µM
measured quantity: solubility kinetic

response.value for O=C1COc2ccc(C(=O)COC(=O)Cc3ccccc3F)cc2N1 (field: solubility kinetic) = 24 µg/mL

solubility kinetic reported for this molecule Nc1c(C(=O)O)sc2nc(-c3ccccc3)cc(-c3ccc(F)cc3)c12 : 51.3 µg/mL

Query Cn1ccnc1SC(C(=O)O)c1ccccc1 (stereo not given) yields solubility kinetic of > 37.2 µg/mL

Looking up Clc1ccccc1C(c1ccccc1)(c1ccccc1)n1ccnc1 , I found its solubility kinetic recorded as 3.7 µg/mL

Memo: O=C(COC(=O)c1ccc2c(c1)OCCO2)Nc1ccc(F)cc1 , reported solubility kinetic: 2.6 µg/mL

Field solubility kinetic (entry Cc1cc(C(=O)NC2=NCCS2)c2ccccc2n1 ) reads > 40.7 µg/mL

Data point: COC(=O)C1=C(C)NC(=O)NC1c1ccc(-c2ccc(Cl)cc2)o1 (stereo not given) ; solubility kinetic = 4.8 µg/mL

Notebook: C#CCn1c(C)cc(C)c(S(=O)(=O)c2ccccc2)c1=O , solubility kinetic read as > 45.2 µg/mL

Query CCC1(CC)NC(=O)N(CC(=O)N2CCc3ccccc32)C1=O yields solubility kinetic of 45.8 µg/mL

Form: molecule = C=CCn1c(=S)sc2c(=O)[nH]cnc21 ; solubility kinetic = > 33.8 µg/mL

solubility kinetic in this record for O=C(NC1CC1)c1cc2cc(Br)ccc2s1 : < 0.6 µg/mL

Record summary for CC1Cc2ccccc2N1S(=O)(=O)c1ccc(Cl)nc1 (stereo not given) : reported solubility kinetic = 1.9 µg/mL

// solubility kinetic value for CC(C)(C)NC(=O)CN(C(=O)C(=O)Nc1ccc2c(c1)OCCO2)C1CC1 : > 56.3 µg/mL

solubility kinetic for O=[N+]([O-])c1ccc(N2CCN(Cc3ccc4c(c3)OCO4)CC2)nc1 is 7 µg/mL

For Cc1cccc(N2C(=O)NC(=O)/C(=C\C=C\c3ccco3)C2=O)c1 the molecule record lists solubility kinetic as 39.2 µg/mL
